Assay: Acute toxicity in mice
Assay type: in vivo
Conditions: mouse, in vivo; intravenous, mice; read-out: LD50
Metric Name: LD50 (mg/kg)
Numeric answer only, unit mg/kg assumed.

Form field LD50, entry NC[C@@H]1O[C@H](O[C@H]2[C@@H](O)[C@H](O[C@@H]3[C@@H](O)[C@H](O)C[C@H](N)[C@H]3O[C@H]3O[C@H](CN)[C@@H](O)[C@H](O)[C@H]3N)O[C@@H]2CO)[C@H](N)[C@@H](O)[C@@H]1O [Bu-2659A, 1-deamino-1-hydroxyneomycin B] : 110

###

As shown below, each of these compounds has a reported MIC value.
Test system: Micrococcus luteus PCI 1001
Assay: MIC by serial two-fold agar dilution, M. luteus PCI 1001
Type: cell-based
Settings: Micrococcus luteus, PCI1001; Table 7; Mueller-Hinton agar; read-out: MIC

Example compounds with recorded MIC:
Compound: NC[C@@H]1O[C@H](O[C@H]2[C@@H](O)[C@H](O[C@@H]3[C@@H](O)[C@H](O)C[C@H](N)[C@H]3O[C@H]3O[C@H](CO)[C@@H](O)[C@H](O)[C@H]3N)O[C@@H]2CO)[C@H](N)[C@@H](O)[C@@H]1O [Bu-2659C, 1-deamino-1-hydroxyparomomycin I]
Assayed Target: Micrococcus luteus PCI 1001
MIC: > 100 µg/mL
--
Compound: NC[C@H]1O[C@H](O[C@H]2[C@H](O[C@@H]3O[C@H](CO)[C@@H](O)[C@H]3O)[C@@H](O)[C@H](O)C[C@@H]2N)[C@H](N)[C@@H](O)[C@@H]1O [Bu-2659E, 1-deamino-1-hydroxyribostamycin]
Assayed Target: Micrococcus luteus PCI 1001
MIC: > 100 µg/mL

Then there is this compound:
Form field MIC, entry NC[C@H]1O[C@H](O[C@H]2[C@H](O[C@@H]3O[C@H](CO)[C@@H](O[C@H]4O[C@H](CN)[C@@H](O)[C@H](O)[C@H]4N)[C@H]3O)[C@@H](O)[C@H](O)C[C@@H]2N)[C@H](N)[C@@H](O)[C@@H]1O [Bu-2659B, 1-deamino-1-hydroxyneomycin C] : > 100 µg/mL
